As shown below, each of these compounds has a reported TGI value.
Test system: MDA-N
experiment: NCI tumour cell line growth inhibition, 48 h

Recorded results for 8 compounds are shown here.
compound | TGI
CC1(C)CC2C=C(C=O)C3(C=O)CC3(C)C2C1 (stereo not drawn) | 9.36 µM
CC(=O)NCCc1c[nH]c2ccc(Cl)cc12 | > 100 µM
COc1ccccc1S(=O)Nc1ccccc1 (stereo not drawn) | > 100 µM
CCc1c(Cl)nc(Cl)nc1Cl | 10.8 µM
O=c1[nH]c(SCc2c(Cl)c(Cl)c(Cl)c(Cl)c2Cl)nc(=S)[nH]1 | > 100 µM
Cc1ccc(-n2c(Cn3nnc(-c4cccnc4)n3)nn(C3OC(COC(=O)c4ccccc4)C(OC(=O)c4ccccc4)C3OC(=O)c3ccccc3)c2=S)cc1 (stereo not drawn) | > 100 µM
CN(C)c1ccc(/C=C(\NC(=O)c2ccccc2)C(=O)Nc2ccccc2C(=O)O)cc1 | > 100 µM
CC(/C=C/c1ccc([N+](=O)[O-])o1)=N/N1CC(CN2CCOCC2)OC1=O (stereo not drawn) | 35.6 µM

Suppose we examine the compound `Cc1cc2c(cc1C)[n+](=O)c(N1CCN(c3ccc([N+](=O)[O-])cc3)CC1)c(C#N)n2[O-]` ; what TGI value has been reported?
> 100 µM

Suppose we examine the compound `O=C(Nc1ccccc1C(=O)O)/C(=C/c1ccccc1)NC(=O)c1ccccc1` ; what TGI value has been reported?
> 100 µM

Suppose we examine the compound COC(=O)C(Cc1ccccc1I)C1=CCC2(CC1)OCCO2 (stereo not drawn) ; what TGI value has been reported?
67.4 µM

Suppose we examine the compound `Cc1c(CCCl)c(N=[N+]=[N-])n2c(nc3ccccc32)c1C#N` ; what TGI value has been reported?
3.12 µM

Suppose we examine the compound CC(C)(C)OC(=O)NC(Cc1cnc[nH]1)C(=O)N1CCCC1C(N)=O (stereo not drawn) ; what TGI value has been reported?
> 100 µM

----------
Test system: BT-549 breast
experiment: NCI tumour cell line growth inhibition, 48 h; in the data active = GI50 below about 0.43 µM; inactive = the rest
Respond using exactly one of the listed classes: active, inactive

Use the examples below as a reference point.
compound | group_label
CCOC(=O)c1cc(C(=O)c2cc(OC)cc(OC)c2)n2ncc3ccccc3c12 | inactive
CC[C@@H](C(=O)[C@@H](C)[C@@H](O)[C@H](C)[C@@H]1O[C@@H]([C@@H](CC)C(=O)O)CC[C@@H]1C)[C@H]1OC2(C=C[C@@H](O)[C@]3(CC[C@@](C)([C@H]4CC[C@](O)(CC)[C@H](C)O4)O3)O2)[C@H](C)C[C@@H]1C (some centres undefined) | active
C=C1CCC2C3(C)COC(c4ccc(SC)cc4)OC3CCC2(C)C1C/C=C1/C(=O)OCC1O (centres undefined) | inactive

Okay, next one:
Tell me the assay call for `COc1ccc(/C=C/c2cc(N3CCOCC3)c3cc(F)c(F)cc3n2)cc1OC` please.
inactive

----------
System: SF-268 CNS
experiment: NCI tumour cell line growth inhibition, 48 h
observation_type: TGI

Suppose we examine the compound COC(=O)C1CCC(Nc2cccc(C(F)(F)F)c2)=N1 (stereo not drawn) ; what TGI value has been reported?
> 100 µM

Suppose we examine the compound `NC(=S)N1N=C2c3ccccc3CC[C@H]2[C@@H]1c1cccs1` ; what TGI value has been reported?
> 100 µM

Suppose we examine the compound CC1=C[C@]2(CC(C)C3C(CC4(C)C5CCC6C(C)(C)C(=O)CC[C@@]67C[C@@]57CC[C@]34C)O2)OC1=O (stereo partly drawn) ; what TGI value has been reported?
> 100 µM
